# AC50 listing for each entry below
STUDY_TARGET: Human KARS (Homo sapiens, UniProt Q15046)
Construct: Human KARS protein (residues 70-584) was expressed and purified; made in house
Sequence (Q15046 70-584): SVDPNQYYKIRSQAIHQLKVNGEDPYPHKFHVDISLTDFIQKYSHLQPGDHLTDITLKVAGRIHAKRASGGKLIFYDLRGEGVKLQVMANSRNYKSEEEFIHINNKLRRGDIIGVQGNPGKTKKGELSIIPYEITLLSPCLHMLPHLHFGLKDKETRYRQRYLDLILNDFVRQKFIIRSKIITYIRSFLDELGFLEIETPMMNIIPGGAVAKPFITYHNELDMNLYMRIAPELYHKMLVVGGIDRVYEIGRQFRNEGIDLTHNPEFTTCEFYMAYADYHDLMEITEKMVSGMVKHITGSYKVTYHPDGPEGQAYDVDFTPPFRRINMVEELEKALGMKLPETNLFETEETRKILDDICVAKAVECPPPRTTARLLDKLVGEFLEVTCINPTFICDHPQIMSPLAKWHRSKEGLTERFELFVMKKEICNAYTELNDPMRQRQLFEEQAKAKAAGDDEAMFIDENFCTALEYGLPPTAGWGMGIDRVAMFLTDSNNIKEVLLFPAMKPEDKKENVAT
ASSAY_EXPLANATION: KARS AMP Transcreener FP assay
Type: biochemical
REPORTED_CONDITIONS: 50 nM human KARS, 20 μM ATP, 50 μM L-Lysine, 1 μM tRNA, 2 h at RT; read-out: Human KARS Transcreener AMP assay Qualified absolute AC50
Source text: KARS AMP Transcreener FP Assay to Measure Inhibition of KARS Enzymatic Activity Lysine-tRNA synthetase (KARS) is an enzyme that catalyzes the reaction of ATP, L-lysine, and tRNA(Lys) to form AMP, diphosphate, and L-lysyl-tRNA(Lys). The Transceener® AMP/GMP (BellBrook Labs, Madison, WI, USA) is a far red, competitive fluorescence polarization (FP) immunoassay based on the detection of AMP, which is one of the products of aminoacylation of tRNA. […]
Please respond with the number in nM and leave the unit unwritten.

// sample COCCNc1cc(F)ccc1CNC(=O)N1CCC2(CC1)CC(O)c1cc(F)ccc1N2C (racemic) [Example 166] , its AC50 was 243

// sample CN1c2ccc(F)cc2C(O)CC12CCN(C(=O)NCc1ccc(F)c(OCCO)c1)CC2 (racemic) [Example 163] , its AC50 was 98.4

// sample O=C(NCc1ccc(F)cc1O)N1CCC2(CC1)C[C@@H](O)c1cc(F)ccc1N2 (single isomer, unassigned) [Example 154a] , its AC50 was 11.7

// sample O=C(NCc1ccc(F)c(CO)c1)N1CCC2(CC1)CC(O)c1cc(F)ccc1N2 (racemic) [Example 159] , its AC50 was 45.9
